This listing pairs compounds with measured Duration >.
assay: Oral spray bitterness masking taste test by volunteers with Coptis chinensis standard bitter solution; format: in vivo, healthy volunteers; conditions: 0.2% solution in 60% ethanol as oral spray; retention time until bitterness rises

Below, 5 compounds whose answers are already recorded.
>>> print(df.to_string())
                                   compound  reported_result
0  CCOC(=O)CNC(=O)[C@@H]1C[C@H](C)CC[C@H]1C(C)C          > 100 s
1  CC(C)[C@@H]1CC[C@@H](C)C[C@H]1OC(=O)CCC(=O)O [Menthyl succinate]           > 10 s
2  CNC(=O)C(C)(C(C)C)C(C)C [Cooling agent WS-23, N,2,3-trimethyl-2-isopropylbutyramide]           > 30 s
3   CC1CCC(C(C)C)C(=O)C1 (stereo not drawn)           > 30 s
4  CC1(C)C2CCC1(C)C(O)C2 (stereo not drawn)           > 10 s

Duration > reported for this compound CCCCC[C@H](O)CC(=O)CCc1ccc(O)c(OC)c1 : > 20 s
